folding stability dG unfold values, listed per item
Experiment: folding stability dG unfold (combined trypsin and chymotrypsin); higher = more stable

Construct sequence	Quantity name	Result
SAGGSAGGSAGGKITIVVSASSPEEAKRFVGELKALGPADIKVIVVPAPKPLPADDPRAKSAGGSAGGSAGG [r7_261_TrMRF]	folding stability dG unfold	< -1 kcal/mol
SAGGSAGGSAMLVELEAGRVIEVPDATPEETRERVRAAVPPEVADEVRIVRAYDPERPVELSAGGSAGGSAG [r3_340_JUSTAS]	folding stability dG unfold	< -1 kcal/mol

We now examine a further sequence.
Looking up SAGGSAGGSKLKIEQDPSDGFLQIQIPPGDEEVKIKFNGEEIEFPLPPGQPIWIPANNWKIEPSAGGSAGGS [r20_26_TrROS] , I found its folding stability dG unfold recorded as < -1 kcal/mol

* * *

Experiment: folding stability dG unfold from chymotrypsin proteolysis; higher = more stable
The threshold is inclusive: folding stability dG unfold of exactly 3 kcal/mol counts as satisfied; values below receive not satisfied.

Examples with answers:
Construct sequence	Class name
SAGGSAGGSAGKEEIKIEITKVEPLEDGSYIAEVIATPKNGKKIPYTALIDPKTGKITIGSAGGSAGGSAGG [r11_31_TrMRF]	not satisfied
SAKKKYIAKVLIEKGDKIIEIEIPGDATVKNPDGKEYTFKVESPEKLKEAIKKLFPEKYPAKILEVKEESAG [r14_41_TrMRF]	not satisfied
SAGMKPSPEGKTIITIDTSTGKVDVVFPDGKEFTLPFDSSSIEEIIKTIKEKLGYPPEVPFNIDEIEIASAG [r5_923_JUSTAS]	not satisfied
VSPLDLEGPGGLPPSELRRVSVLREETDPSVGEKRLSPVGTLFVPKDTSPEEVEAIIAARPDITRVEVRLLS [r1_132_JUSTAS]	not satisfied

Ask | Please check the record SAGGMIKLEFENPDGMRIKIEIDRIHRFDPDNGYLIIPVKIEVEPPGKPREIDGTIILPPGMPPGQPLSAGG [r13_823_TrROS] and state if its folding stability dG unfold is at or above 3 kcal/mol.
Reply | not satisfied

Ask | Exam item: decide whether the reported folding stability dG unfold for SAGGYIPASARIEVLEVFEDGTVRVRVTYPDGSEAEVVARLVRTADGRVYLEIFDPRTGRLLATLELTSAGG [r13_527_TrMRF] is at least 3 kcal/mol.
Reply | satisfied

Ask | Could you tell me if the measured folding stability dG unfold of SAGGSAGGSAGVVEPTVVSRAPDGTLTVVLNLPDGSTRTVTDPTNVTIGDRPINALTNASSAGGSAGGSAGG [r11_1017_JUSTAS] reaches 3 kcal/mol or more?
Reply | not satisfied

Ask | Hi team, for SAGGEKITAEELVEEIQKIFNENGMKPVAIEPMPDGGVFIHFKNPYMIMIDAEEGKIEIMPPEDMEDFSAGG [r13_717_TrROS] , is the recorded folding stability dG unfold at or above 3 kcal/mol?
Reply | not satisfied

Ask | I'd appreciate it if you could say whether SAGWYIKVEVYYGGKKHTFMIPRKQAKELRKKYPPGDEIPIPFNGRDVEIRVQVIPPPPPSPEDAADNKSAG [r5_669_TrROS] has folding stability dG unfold at least equal to 3 kcal/mol.
Reply | not satisfied

Ask | Please check the record SAGGSMRLVKITVTTLEPSAEAIAAGAPTPVTLIEREVSSEEEVEEFIKSLPPNVEVSVERLPPPASAGGSA [r2_25_JUSTAS] and state if its folding stability dG unfold is at or above 3 kcal/mol.
Reply | not satisfied

Ask | Check this sequence for folding stability dG unfold at or above 3 kcal/mol: SAGGMTIEVPDGFRIDGFRPFPDGRSAVLVRYKGTGKVEIFPFGDRVPEASADEPVEVEVVPIPPELLSAGG [r13_173_TrMRF]
Reply | not satisfied

Ask | Entry SAGGSAMEIKTLETKTVKTEKLPDGSTKVTTTYKTVDPSGGKTSNYIKTTLYAPDGKKTSTEVKEKSAGGSA [r15_758_JUSTAS] : is its folding stability dG unfold no less than 3 kcal/mol?
Reply | not satisfied

Ask | Determine whether measured folding stability dG unfold meets or exceeds 3 kcal/mol for SAGGAPDIPILTASYSPDGVLYSSTTTPINGTLHYFPEDNPVVLATDPATGLTVPVGTLEDVKRLIASAGGS [r8_232_TrMRF]
Reply | not satisfied

Ask | Does the sequence KIEIKVHPDGTLLIKAPLELIDLLIKLLKEKGYDAKILKIDPENGYVLIPVKPKPPPIPKPTPEELLKALFS [r1_78_TrMRF] have recorded folding stability dG unfold that is 3 kcal/mol or more?
Reply | satisfied

Ask | I'd appreciate it if you could say whether SAGPFILVKFVTPDGRPLYYVIEIPESEEPEKLTLEQALEVAEAIAKALASKGGFEVKEVKIVSPEEFSAGG [r19_27_TrMRF] has folding stability dG unfold at least equal to 3 kcal/mol.
Reply | satisfied

Ask | In plain terms: is recorded folding stability dG unfold at least 3 kcal/mol for SAMVIIRVENKDGKTIEIAIPVRNEDGKLTKEELEELAKRLAEELAEELGLEDVKVEVEVRPLSEEELKSAG [r14_378_TrROS_Hall] ?
Reply | not satisfied

Ask | Could you please find out whether SGPIAELVKAHPGVPVEDLAKAIVDALKAQLPKDVPITVDAEVTPDGIKLNVTVEGDTEPFTFPFVVKPGSA [r9_805_TrMRF] has folding stability dG unfold that meets 3 kcal/mol or exceeds it?
Reply | not satisfied

Ask | Identify whether the reported folding stability dG unfold of the following sequence is 3 kcal/mol or greater: SAGGSAGGSPVLLAESVTTLPDGTVVRTRLVRLPDGTYLRETETYPPGGAPARAVERFDDPRLASAGGSAGG [r6_299_JUSTAS]
Reply | satisfied

Ask | Could you tell me if the measured folding stability dG unfold of SMVLARIKVRVRDPVTGEELDVEIDLLAPVEVAEEAAEEFRKLFPGLEVEVDLVEVVPLPPVTPEQLAKESA [r9_421_TrMRF] reaches 3 kcal/mol or more?
Reply | not satisfied

Ask | Given the entry SAGITITVPPGKPYYVHITMYMFDPNGKLMGPQTIMFPIRVPPDDTIEIPIPFDSPNIRITDISIMPKSAGG [r19_295_TrROS] , answer whether its folding stability dG unfold meets or surpasses 3 kcal/mol.
Reply | not satisfied

Ask | Does folding stability dG unfold meet or surpass 3 kcal/mol for SAGGSERTIMIPVEPGMSPEQIADEIKAILRELGPGRPIEIDDVHPGGWVKIKINNKPIKIHIMWPSAGGSA [r2_102_TrROS] ?
Reply | not satisfied

Ask | Test whether the sequence SAGGSAGGGITAKEAAELLEKYLKEKGYDYEVKIEEVDPVNPTVKITVTFPDGSKLEITLPIVDSAGGSAGG [r6_617_TrMRF] records folding stability dG unfold of 3 kcal/mol or higher.
Reply | satisfied

Where these numbers come from: the supplement of paper PMC12764529
